System: human prostate cancer cell PC-3
METHOD DESCRIPTION: In vitro anticancer activity test (MTT cell proliferation assay)
Type: cell-based
pIC50: −log10 of the molar value.
REPORTED ENDPOINT: pIC50

QUERY: Consider the compound O=C(O)c1cn(C2CC2)c2cc(N3CCNCC3)c(F)cc2c1=O and give its measured pIC50.
RESULT: < 4.00

QUERY: Quick one: O=C(O)c1cn(C2CC2)c2c(Cl)c(-c3ccc(S(=O)(=O)NCCCC(F)(F)F)nc3)c(F)cc2c1=O
RESULT: 5.00 to 6.00

QUERY: Quick one: CCN(CC)CCNC(=O)c1c(C)[nH]c(/C=C2\C(=O)Nc3ccc(F)cc32)c1C
RESULT: 4.83

###

System: E. feacium ATCC 700221
METHOD DESCRIPTION: In vitro antibacterial activity assay (MIC, broth dilution)
Assay type: cell-based
EXPERIMENTAL SETUP: Table 1; 37°C, 16 hours; read-out: G+ bacteria MIC E. feacium ATCC 700221
REPORTED ENDPOINT: MIC

QUERY: Consider the molecule O=C(O)c1cn(C2CC2)c2c(Cl)c(-c3ccc(S(=O)(=O)NCCCC(F)(F)F)nc3)c(F)cc2c1=O and give its measured MIC.
RESULT: 1 to 8 µg/mL

QUERY: Quick one: COc1c(N2C[C@@H]3CCCN[C@@H]3C2)c(F)cc2c(=O)c(C(=O)O)cn(C3CC3)c12 [Moxifloxacin, reference compound]
RESULT: > 8 µg/mL

QUERY: Quick one: NS(=O)(=O)c1ccc(-c2c(F)cc3c(=O)c(C(=O)O)cn(C4CC4)c3c2Cl)cc1[N+](=O)[O-]
RESULT: 1 to 8 µg/mL

QUERY: Quick one: O=C(O)c1cn(C2CC2)c2c([N+](=O)[O-])c(-c3ccc(NC(=O)C(F)(F)F)c([N+](=O)[O-])c3)c(F)cc2c1=O
RESULT: 1 to 8 µg/mL

QUERY: Quick one: Cc1c(-c2ccc(C(=O)NCC(C)(C)C)c(N)c2)c(F)cc2c(=O)c(C(=O)O)cn(C3CC3)c12
RESULT: 1 to 8 µg/mL

QUERY: Quick one: O=C(O)c1cn(C2CC2)c2cc(-c3ccc(S(=O)(=O)NCCO)cc3)c(F)cc2c1=O
RESULT: 1 to 8 µg/mL

QUERY: Quick one: CCCNS(=O)(=O)c1ccc(-c2c(F)cc3c(=O)c(C(=O)O)cn(C4CC4)c3c2Cl)cn1
RESULT: > 8 µg/mL

QUERY: Quick one: O=C(O)c1cn(C2CC2)c2cc(N3CCNCC3)c(F)cc2c1=O
RESULT: > 8 µg/mL

QUERY: Quick one: N#Cc1cc(-c2cc3c(cc2F)c(=O)c(C(=O)O)cn3C2CC2)ccc1S(=O)(=O)NC1CCOCC1
RESULT: 1 to 8 µg/mL

###

I'd be grateful if you could share measured pIC50 for these entries.
Test system: human acute T-lymphoblastic leukemia cell Jurkat
METHOD DESCRIPTION: In vitro anticancer activity test (MTT cell proliferation assay)
Type: cell-based
pIC50: −log10 of the molar value.

QUERY: Consider the molecule O=C(O)c1cn(C2CC2)c2cc(N3CCNCC3)c(F)cc2c1=O and give its measured pIC50.
RESULT: < 4.00

QUERY: Quick one: O=C(O)c1cn(C2CC2)c2c(Cl)c(-c3ccc(S(=O)(=O)NCCCC(F)(F)F)nc3)c(F)cc2c1=O
RESULT: 5.00 to 6.00

Attribution: patent EP4644391A1
